assayed target: pre-pro-human insulin
Here the recorded Selectivity is given for each entry.

Below: 4 proteins and their reported Selectivity.
>>> meas_value("trypsin variant SEQ ID NO: 102 (protein) IVGGYTCAANSIPYQVSLNSGSHRCGGSLINSQWVVSAAHCYKPRIQVRLGEHNIHVLEGNEQFINAAKIITHPNFNPNTLDNDIMLIKLSSPATLNSHVATVSLPTSCAAAGTECLISGWGNTSSSGSSMPSLLQCLKAPVLSDSSCKSSYPGQITGNMICVGFLEGGADACQGDSGGPVVCNGQLQGIVSSGYGCAQKNKPGVYTKVCNYVNWIQQTIAAN")
">90%"
>>> meas_value("trypsin variant SEQ ID NO: 27 (protein) IVGGYTCAANSIPYQVSLNSGSHRCGGSLINSQWVVSAAHCYKSRIQVRLGEHNIDVLEGNEQFINAAKIITHPNFNGNTLDNDIMLIKLSSPATLNSRVATVSLPRSCAAAGTECLISGWGNTKSSGSSYPSLLQCLKAPVLSDSSCKSSYPGQITGNMICVGFLEGGNDACQGDSGGPVVCNGQLQGIVSSGYGCAQKNKPGVYTKVCNYVNWIQQTIAAN")
">80%"
>>> meas_value("trypsin variant SEQ ID NO: 96 (protein) IVGGYTCAANSIPYQVSLNSGSHRCGGSLINSQWVVSAAHCYKPRIQVRLGEHNIDVLEGNEQFINAAKIITHPNFNPNTLDNDIMLIKLSSPATLNSHVATVSLPRSCAAAGTECLISGWGNTSSSGSSMPSLLQCLKAPVLSDSSCKSSYPGQITGNMICVGFLEGGADACQGDSGGPVVCNGQLQGIVSSGYGCAQKNKPGVYTKVCNYVNWIQQTIAAN")
">90%"
>>> meas_value("trypsin variant SEQ ID NO: 54 (protein) IVGGYTCAANSIPYQVSLNSGSHRCGGSLINSQWVVSAAHCYKSRIQVRLGEHNIAVLEGNEQFINAAKIITHPNFNGNTLDNDIMLIKLSSPATLNSRVATVSLPRSCAAAGTECLISGWGNTKSSGSSYPSLLQCLKAPVLSDSSCKSSYPGQITGNMICVGFLEGGKDACQGDSGGPVVCNGQLQGIVSSGYGCAQKNKPGVYTKVCNYVNWIQQTIAAN")
">90%"

Please find the next protein below.
stdin: Dear colleague, I am looking for the recorded Selectivity of the following protein: trypsin variant SEQ ID NO: 39 (protein) IVGGYTCAANSIPYQVSLNSGSHRCGGSLINSQWVVSAAHCYKSRIQVRLGEHNIDVLEGNEQFINAAKIITHPNFNGNTLDNDIMLIKLSSPATLNSRVATVSLPRSCAAAGTECLISGWGNTKSSGSSNPSLLQCLKAPVLSDSSCKSSYPGQITGNMICVGFLEGGKDACQGDSGGPVVCNGQLQGIVSSGYGCAQKNKPGVYTKVCNYVNWIQQTIAAN
stdout: >90%
